# Tested Target: CYP2D6 (Homo sapiens)
# Construct: from tissue; host or cells: pooled human liver microsomes
# Sequence (P10635 whole entry): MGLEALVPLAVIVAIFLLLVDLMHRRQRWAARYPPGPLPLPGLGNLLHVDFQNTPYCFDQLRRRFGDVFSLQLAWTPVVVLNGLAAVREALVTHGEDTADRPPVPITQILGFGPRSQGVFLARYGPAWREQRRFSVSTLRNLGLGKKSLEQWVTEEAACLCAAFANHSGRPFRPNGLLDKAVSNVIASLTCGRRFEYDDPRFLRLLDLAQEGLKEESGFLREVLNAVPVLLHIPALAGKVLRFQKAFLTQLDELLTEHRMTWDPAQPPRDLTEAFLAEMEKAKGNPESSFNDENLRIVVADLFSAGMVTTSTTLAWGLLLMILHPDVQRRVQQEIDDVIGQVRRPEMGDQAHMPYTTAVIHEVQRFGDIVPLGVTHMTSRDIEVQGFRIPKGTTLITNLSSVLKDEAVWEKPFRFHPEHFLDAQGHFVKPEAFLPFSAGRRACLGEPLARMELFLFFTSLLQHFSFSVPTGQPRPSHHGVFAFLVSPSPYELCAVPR
# Assay Text: CYP-direct inhibition, CYP2D6
# Format: in vitro ADME
# Run Parameters: human liver microsome; substrate dextromethorphan; read-out: IC50 CYP-2D6
Measured Parameter: IC50 (µM)

These recorded examples may help you get a feel for the data.
Task: # lookup: IC50 of COc1cc2c(NC3CCOCC3)nc(N3CCCC3)nc2cc1OCCCN1CCCC1
Result: 24.8

Task: # lookup: IC50 of COc1cc2c(NC3CCS(=O)(=O)CC3)nc(N3CCOCC3)nc2cc1OCCCN1CCCC1
Result: 29

1: COc1cc2c(NC3COC3)nc(N3CCC(F)(F)CC3)nc2cc1OCCCN1CCCC1
2: COCCNc1nc(N2CCC(F)(F)CC2)nc2cc(OCCCN3CCCC3)c(OC)cc12
Task: Lab notebook, comparison: 1 versus 2 , higher IC50 goes to which? Reply briefly: the label of your chosen item.
Result: 1

1: COCCN1CCC(Nc2nc(N3CCC(F)(F)CC3)nc3cc(OCCCN4CCCC4)c(OC)cc23)CC1
2: COc1cc2c(NC3CCN(C(C)C)CC3)nc(-n3ccnc3)nc2cc1OCCCN1CCCC1
3: COc1cc2c(NC3CCN(C(C)C)CC3)nc(N3CCC3)nc2cc1OCCCN1CCCC1
4: COc1cc2c(NC3CCS(=O)(=O)CC3)nc(N3CCCC3)nc2cc1OCCCN1CCCC1
Task: Arrange items by their IC50 values in increasing order. Order the labels as requested and list them.
Result: 2, 1, 4, 3

A: COc1cc2c(NC3CCOCC3)nc(N3CCCN(C)CC3)nc2cc1OCCCN1CCCC1
B: COc1cc2c(NC3CCOCC3)nc(N3CCC3)nc2cc1OCCCN1CCCC1
C: COc1cc2c(NC3CCS(=O)(=O)CC3)nc(N3CCC(F)(F)CC3)nc2cc1C#CCN1CCCC1
Task: Arrange items by their IC50 values in increasing order. Order the labels as requested and list them.
Result: B, C, A
(B: 23 µM, C: 55.9 µM, A: 86.2 µM)
